# system: [Pyruvate dehydrogenase (acetyl-transferring)] kinase isozyme 2, mitochondrial (Homo sapiens, UniProt Q15119)
# assayProtocol: Inhibition of human PDHK2 co-complexed with porcine PDH using sodium pyruvate, coenzymeA and NAD as substrate preincubated with enzyme complex for 45 mins followed by ATP addition and then later incubated with substrate for 90 mins by absorption spectrophotometric assay
propertyMeasured: IC50

# return recorded IC50 for entry "CCCc1[nH]c2nc(C)nc(Cl)c2c1C" 9.9 µM

# return recorded IC50 for entry "Cc1cnc2[nH]c3c(C4CC4)cccc3c2c1" 2 µM

# return recorded IC50 for entry "CC1(C)C(=O)Nc2c(N)cccc21" > 300 µM

# return recorded IC50 for entry "CCCc1[nH]c2nc(C)ncc2c1C" 14.7 µM

# return recorded IC50 for entry "Cc1cnc2[nH]c3c(C4CC4)cccc3c2n1" 0.71 µM

# return recorded IC50 for entry "CCCc1[nH]c2nc(C)ncc2c1Cl" 1.8 µM

# return recorded IC50 for entry "CCCc1[nH]c2nc(C)ncc2c1Br" 2.2 µM

# return recorded IC50 for entry "CNC(=O)c1[nH]c2nc(C)nc(Cl)c2c1C" 42.8 µM

# return recorded IC50 for entry "CC1(C)C(=O)Nc2c(C3CC3)cccc21" 4.9 µM

# return recorded IC50 for entry "CC1(C)C(=O)Nc2ccccc21" 279 µM

# return recorded IC50 for entry "c1cnc2[nH]c3c(C4CC4)cccc3c2c1" 3.5 µM

# return recorded IC50 for entry "CCc1cccc2c1NC(=O)C2(C)C" 11 µM

# return recorded IC50 for entry "CNC(=O)c1[nH]c2nc(C)nc(Cl)c2c1Br" > 30 µM

# return recorded IC50 for entry "C/C=C/c1[nH]c2nc(C)nc(Cl)c2c1Cl" 1.5 µM

# return recorded IC50 for entry "CNc1cccc2c1NC(=O)C2(C)C" 0.59 µM

# return recorded IC50 for entry "CCCc1[nH]c2nc(C)ncc2c1C#N" > 30 µM

----------
Exercise: for every item that follows, state its recorded pIC50.
# system: [Pyruvate dehydrogenase (acetyl-transferring)] kinase isozyme 4, mitochondrial (Homo sapiens, UniProt Q16654)
# Sequence (Q16654 whole entry): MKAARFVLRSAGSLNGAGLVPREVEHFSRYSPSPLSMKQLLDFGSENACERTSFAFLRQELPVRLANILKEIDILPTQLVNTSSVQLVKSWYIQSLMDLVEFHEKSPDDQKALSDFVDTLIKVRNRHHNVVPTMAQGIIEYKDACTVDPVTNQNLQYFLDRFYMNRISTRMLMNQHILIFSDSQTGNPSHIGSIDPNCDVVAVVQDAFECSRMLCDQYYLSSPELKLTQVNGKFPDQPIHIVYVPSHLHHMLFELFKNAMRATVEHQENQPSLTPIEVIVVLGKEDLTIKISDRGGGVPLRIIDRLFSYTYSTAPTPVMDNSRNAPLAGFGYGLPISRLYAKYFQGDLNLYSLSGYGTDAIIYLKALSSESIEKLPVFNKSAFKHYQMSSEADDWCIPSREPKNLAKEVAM
# assayProtocol: Inhibition of human PDHK4 co-complexed with porcine PDH using sodium pyruvate, coenzymeA and NAD as substrate preincubated with enzyme complex for 45 mins followed by ATP addition and then later incubated with substrate for 90 mins by absorption spectrophotometric assay
# pIC50 = -log10(concentration in molar units)

# return recorded pIC50 for entry "Cc1cnc2[nH]c3c(C4CC4)cccc3c2n1" 5.23

# return recorded pIC50 for entry "CC1(C)C(=O)Nc2c(C3CC3)cccc21" 4.36

# return recorded pIC50 for entry "CCCc1[nH]c2nc(C)ncc2c1Cl" 4.96

----------
# system: [Pyruvate dehydrogenase (acetyl-transferring)] kinase isozyme 1, mitochondrial (Homo sapiens)
# Sequence (Q15118 whole entry): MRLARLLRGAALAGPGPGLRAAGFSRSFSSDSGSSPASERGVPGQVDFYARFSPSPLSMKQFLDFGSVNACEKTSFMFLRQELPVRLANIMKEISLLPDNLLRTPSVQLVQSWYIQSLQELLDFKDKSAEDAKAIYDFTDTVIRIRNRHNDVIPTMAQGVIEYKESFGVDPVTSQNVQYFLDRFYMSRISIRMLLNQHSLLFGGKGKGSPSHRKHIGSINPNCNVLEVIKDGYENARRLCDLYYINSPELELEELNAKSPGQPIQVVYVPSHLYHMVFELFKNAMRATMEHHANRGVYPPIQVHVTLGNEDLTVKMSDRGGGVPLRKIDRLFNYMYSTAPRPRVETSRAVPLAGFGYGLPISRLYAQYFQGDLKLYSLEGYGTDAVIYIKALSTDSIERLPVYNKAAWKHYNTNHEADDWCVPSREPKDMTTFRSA
# assayProtocol: Inhibition of human PDHK1 co-complexed with porcine PDH using sodium pyruvate, coenzymeA and NAD as substrate preincubated with enzyme complex for 45 mins followed by ATP addition and then later incubated with substrate for 90 mins by absorption spectrophotometric assay
propertyMeasured: IC50
Entry format: amount then unit.

# return recorded IC50 for entry "CNc1cccc2c1NC(=O)C2(C)C" 370 nM

----------
# system: [Pyruvate dehydrogenase (acetyl-transferring)] kinase isozyme 4, mitochondrial (Homo sapiens)
# assayProtocol: Inhibition of human PDHK4 co-complexed with porcine PDH using sodium pyruvate, coenzymeA and NAD as substrate preincubated with enzyme complex for 45 mins followed by ATP addition and then later incubated with substrate for 90 mins by absorption spectrophotometric assay
Exercise: for every item that follows, state its recorded pIC50.
# pIC50 = -log10(concentration in molar units)

# return recorded pIC50 for entry "CCCc1[nH]c2nc(C)ncc2c1Br" 4.91

# return recorded pIC50 for entry "C/C=C/c1[nH]c2nc(C)nc(Cl)c2c1Cl" 5.10

# return recorded pIC50 for entry "CNc1cccc2c1NC(=O)C2(C)C" 4.89

# return recorded pIC50 for entry "Cc1cnc2[nH]c3c(C4CC4)cccc3c2c1" 4.92
